target: human CD33 P189A (human, UniProt P20138 18-364); experiment: alanine scan, flow cytometry, HEK293-T;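 also: antibody binding to each alanine-substituted CD33 mutant expressed transiently in HEK293-T, read as fluorescence minus background, mean of duplicates, relative to wild-type CD33 set as 100%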
Sequence (P20138 18-364 P189A limits assumed): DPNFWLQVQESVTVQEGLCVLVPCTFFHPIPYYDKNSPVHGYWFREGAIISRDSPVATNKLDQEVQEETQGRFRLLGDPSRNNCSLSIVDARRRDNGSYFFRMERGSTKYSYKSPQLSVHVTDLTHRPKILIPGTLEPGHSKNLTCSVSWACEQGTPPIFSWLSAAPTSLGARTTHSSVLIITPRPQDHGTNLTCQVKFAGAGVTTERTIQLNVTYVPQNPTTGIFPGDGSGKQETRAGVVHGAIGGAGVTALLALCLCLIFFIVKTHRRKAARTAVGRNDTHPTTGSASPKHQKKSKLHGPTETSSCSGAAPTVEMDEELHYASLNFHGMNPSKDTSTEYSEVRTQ
OBSERVABLE: Mean % WT Binding (%)
Report the figure in % without appending any unit label.

-- ask What value of Mean % WT Binding has been reported for the following binder? Refmab #4 (antibody, V domains shown, In the alanine scan antibodies were used as IgG or Fab) VH: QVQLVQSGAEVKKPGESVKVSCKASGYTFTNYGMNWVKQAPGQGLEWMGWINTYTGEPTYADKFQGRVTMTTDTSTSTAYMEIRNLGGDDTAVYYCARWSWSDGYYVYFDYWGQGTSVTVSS VL: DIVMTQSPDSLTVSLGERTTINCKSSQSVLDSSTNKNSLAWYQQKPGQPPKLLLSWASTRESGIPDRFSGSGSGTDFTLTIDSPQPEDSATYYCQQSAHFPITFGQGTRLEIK
-- reply 98.2

-- ask What value of Mean % WT Binding has been reported for the following binder? Refmab #3 (antibody, V domains shown, In the alanine scan antibodies were used as IgG or Fab) VH: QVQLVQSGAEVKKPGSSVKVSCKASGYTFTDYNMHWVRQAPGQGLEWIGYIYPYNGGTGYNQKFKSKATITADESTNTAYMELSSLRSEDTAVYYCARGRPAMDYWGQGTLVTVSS VL: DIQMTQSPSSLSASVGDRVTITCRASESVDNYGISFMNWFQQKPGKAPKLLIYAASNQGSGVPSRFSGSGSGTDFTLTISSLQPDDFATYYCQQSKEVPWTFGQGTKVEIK
-- reply 95.5

-- ask What value of Mean % WT Binding has been reported for the following binder? Refmab #2 (antibody, V domains shown, In the alanine scan antibodies were used as IgG or Fab) VH: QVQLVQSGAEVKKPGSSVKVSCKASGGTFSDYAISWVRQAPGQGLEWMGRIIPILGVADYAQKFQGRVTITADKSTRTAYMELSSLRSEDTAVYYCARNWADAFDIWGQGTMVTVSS VL: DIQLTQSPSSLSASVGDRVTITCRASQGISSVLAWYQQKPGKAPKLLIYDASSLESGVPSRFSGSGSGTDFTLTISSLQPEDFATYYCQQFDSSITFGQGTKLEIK
-- reply 116

-- ask What value of Mean % WT Binding has been reported for the following binder? Refmab #1 (antibody, V domains shown, In the alanine scan antibodies were used as IgG or Fab; also called hP67.6) VH: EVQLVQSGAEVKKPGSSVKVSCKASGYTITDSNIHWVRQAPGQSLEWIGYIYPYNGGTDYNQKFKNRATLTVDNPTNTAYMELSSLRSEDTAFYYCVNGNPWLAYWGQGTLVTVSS VL: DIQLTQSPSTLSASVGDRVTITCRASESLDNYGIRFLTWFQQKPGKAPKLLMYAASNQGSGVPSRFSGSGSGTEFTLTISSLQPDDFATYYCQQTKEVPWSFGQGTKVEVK
-- reply 89.2
